Would you mind telling me the reported GI50 of each entry?
System: A549
Assay: NCI tumour cell line growth inhibition, 48 h
Activity calls are given as the source filed them. Cut-off read from the data, not from the text of the source: active = GI50 up to about 1.1 µM and inactive = higher.

Q: Given the compound C=CC(Br)(CBr)CCC(Cl)C(C)C (centres undefined) , what is its reported GI50?
A: 4.69 µM (inactive)

Q: Field entry: O=C1c2ccccc2C2=Cc3ccccc3C(O)N12 (centres undefined)
A: > 100 µM (inactive)

Q: Field entry: Cn1c(=O)n2n(c1=O)Cc1cccc3cccc(c13)C2
A: > 100 µM (inactive)

Q: Field entry: O=Cc1ccc(-c2ccc(-c3ccc(CO)s3)o2)s1
A: 14.8 µM (inactive)

Q: Field entry: COc1ccc2nc3cc(Cl)ccc3c(NCCCNCc3cc(OC)c(OC)c(OC)c3)c2c1
A: 1.83 µM (inactive)

Q: Field entry: CC1(C)CC23C4COC(=O)C2CCC1C3CC4=O (centres undefined)
A: 19.1 µM (inactive)

Q: Field entry: CCCCCCC/C=C1\CCC(CN(C)C)C1=O (centres undefined)
A: 22.6 µM (inactive)

Q: Field entry: Brc1ccc2c(c1)-c1nc3c(cc1CC2)CCc1ccc(Br)cc1-3
A: > 100 µM (inactive)

Q: Field entry: Cc1ccc(S(=O)(=O)NC(=O)Nc2nc(Cl)cc(Cl)n2)cc1
A: > 100 µM (inactive)

----------
System: KM12
Experiment: NCI tumour cell line growth inhibition, 48 h
Activity calls are given as the source filed them. Cut-off read from the data, not from the text of the source: active = GI50 up to about 1.1 µM and inactive = higher.
Choose the fitting class; nothing outside 1 = active, 0 = inactive is accepted.

Q: Could you please tell me the result logged for Cc1c(CNc2ccc(C(=O)NC(CCCNC(=O)c3ccccc3C(=O)O)C(=O)O)cc2)cnc2nc(N)nc(N)c12 (stereo unspecified) in this assay?
A: 1

Q: Field entry: OCCN1CCN2C=C(C3CCCC4N(CCO)CCN34)CCC21 (stereo unspecified)
A: 0

Q: Field entry: N#CC1Nc2ccccc2[C@@H](O)C1O (stereo partly specified)
A: 0

Q: Field entry: O=C(NCCCCCCCCCCCCNC(=O)Nc1cccc2ccccc12)Nc1cccc2ccccc12
A: 0

Q: Field entry: CN(OC(=O)CC(=O)c1ccccc1)C(=O)Cc1ccccc1
A: 0

Q: Field entry: C=C/C=C/NC(=O)OCc1ccccc1
A: 0

Q: Field entry: CCN(CC)CCCOc1cc2c(cc1OC)C(=O)N1CCC[C@H]1C=N2
A: 0

Q: Field entry: COc1ccc2nc3cc(Cl)ccc3c(NCCCNCc3cc(OC)c(OC)c(OC)c3)c2c1
A: 0

Q: Field entry: CN(C)c1ccc(/C=C2\Cc3ccccc3C2=O)cc1Br
A: 0

Q: Field entry: O=C(O)Cc1ccc2nc(COC(=O)c3ccccc3)sc2c1
A: 0

Q: Field entry: O=C1c2sc(-c3ccc(Cl)cc3)cc2-n2cccc21
A: 0

----------
Would you mind telling me the reported GI50 of each entry?
System: TK-10
Experiment: NCI tumour cell line growth inhibition, 48 h
Activity calls are given as the source filed them. Rule as the data show it: active = GI50 up to about 1.1 µM and inactive = higher.

Q: Given the molecule COc1ccc(C2C(C#N)=C(S)N(C3OC(CO)C(O)C(O)C3O)C(C)=C2C(C)=O)cc1 (stereo not given) , what is its reported GI50?
A: > 100 µM (inactive)

Q: Field entry: Cn1nc(-c2ccccc2)c(N=[N+]=[N-])cc1=O
A: > 100 µM (inactive)

Q: Field entry: CC(=O)O[C@H]1[C@H](OC(=O)CC(C)(O)CC(=O)O)C[C@]2(C)C3=C(CCC2C1(C)C)[C@]1(C)CC[C@H]([C@H]2CC[C@H](C(C)(C)O)OC2O)[C@@]1(C)[C@@H](O)C3 (stereo not given in full)
A: 30.9 µM (inactive)

Q: Field entry: CCOC(=O)C1=C(Nc2ccccc2)OC/C1=N\NC(=O)Cc1ccccc1
A: > 50 µM (inactive)

Q: Field entry: CC(=O)OC(C)(C)C[N+](=O)[O-]
A: > 100 µM (inactive)

Q: Field entry: O=c1cccc2n1C[C@H]1CNC[C@H]2C1
A: > 100 µM (inactive)

Q: Field entry: CN(C)c1ccc(/C=C2\Cc3ccccc3C2=O)cc1Br
A: > 100 µM (inactive)

Q: Field entry: Cc1nc2ccccc2c(=O)n1-c1ccccc1F
A: > 100 µM (inactive)

Q: Field entry: Cc1ccc(N2C(=O)/C(=C3\Sc4c(nc(C)[nH]c4=O)N3c3ccccc3)SC2=S)cc1
A: 24 µM (inactive)

Q: Field entry: CCN(CCN(CC)C(=O)NC)C(=O)NC
A: > 100 µM (inactive)

----------
System: COLO 205
Assay: NCI tumour cell line growth inhibition, 48 h
Active and inactive are the calls of the source. Cut-off read from the data, not from the text of the source: active = GI50 up to about 1.1 µM and inactive = higher.
Choose the fitting class; nothing outside active, inactive is accepted.

Q: Could you please tell me the result logged for CC(=O)c1sc2c(c1OC(=O)c1ccc(Cl)cc1Cl)c(=O)n(-c1ccccc1)c(=S)n2-c1ccccc1 in this assay?
A: active

Q: Field entry: Cc1cc(C)c(N[S+]([O-])c2cccc([N+](=O)[O-])c2)c(C)c1 (stereo unspecified)
A: inactive

Q: Field entry: CCCCC/C=C\C=C1\C(=O)C=C[C@@H]1C/C=C\CCCC(=O)O
A: inactive

Q: Field entry: O=C1C(c2c(O)[nH]c3ccc([N+](=O)[O-])cc23)=Nc2ccccc21
A: inactive

Q: Field entry: Oc1ccc(-c2csc(N/N=C3\NC/C(=C/c4ccc5c(c4)OCO5)S3)n2)cc1O
A: inactive

Q: Field entry: C[N+](C)(N)c1nc(N)c(C#N)c(C#N)c1C#N
A: inactive

Q: Field entry: Cc1cc(-n2c(/C=C/c3ccc(Cl)cc3)nc3cc(Cl)ccc3c2=O)on1
A: inactive

Q: Field entry: CCOC(=O)C1(Cc2ccccc2)Cc2cc3c(cc2C1=O)CCC3 (stereo unspecified)
A: inactive

Q: Field entry: CCCCN=C(OC1C=CCCC1)SC (stereo unspecified)
A: inactive

Q: Field entry: COc1ccc(NC2=NCCO2)c2ccccc12
A: inactive

Q: Field entry: COc1cc2oc(=O)cc(C)c2c(OC)c1OC(C)=O
A: inactive

----------
System: CAKI-1
Assay: NCI tumour cell line growth inhibition, 48 h
Active and inactive are the calls of the source. Rule as the data show it: active = GI50 up to about 1.1 µM and inactive = higher.
Choose the fitting class; nothing outside y for active, n for inactive is accepted.

Q: Could you please tell me the result logged for CC1CN=C(N(C(=O)Nc2ccc(Cl)c(Cl)c2)c2ccccc2)S1 (stereo unspecified) in this assay?
A: n

Q: Field entry: [O-][n+]1ccccc1S [PYRITHIONE ZINC]
A: n

Q: Field entry: C#CCOCn1cc(C)c(=O)[nH]c1=O
A: n

Q: Field entry: CN(C)CCn1c(=O)c2ccc3c4c(nn3CCN(C)C)c3cc(O)ccc3n(c1=O)c24
A: y

Q: Field entry: Nc1nc(=S)[nH]c2nc3c(c(-c4ccccc4)c12)CCCC3
A: n

Q: Field entry: Cn1nc(-c2ccccc2)c(N=[N+]=[N-])cc1=O
A: n

----------
Tested on: SK-MEL-28
Test: NCI tumour cell line growth inhibition, 48 h
Active and inactive are the calls of the source. Rule as the data show it: active = GI50 up to about 1.1 µM and inactive = higher.
Choose the fitting class; nothing outside Y for active, N for inactive is accepted.

Q: Could you please tell me the result logged for CC(=O)O[C@H]1C[C@H](O[C@H]2[C@@H](O)C[C@H](O[C@H]3[C@@H](O)C[C@H](O[C@H]4CC[C@@]5(C)[C@H](CC[C@@H]6[C@@H]5CC[C@]5(C)[C@@H](C7=CC(=O)OC7)CC[C@]65O)C4)O[C@@H]3C)O[C@@H]2C)O[C@H](C)[C@H]1O[C@@H]1O[C@H](CO)[C@@H](O)[C@H](O)[C@H]1O in this assay?
A: Y

Q: Field entry: COc1ccc2c(c1)C(=O)C1(C2)[C@H](c2ccccc2)C2C(=O)c3cc(OC)ccc3C2[C@H]1c1ccccc1 (stereo partly specified)
A: N

Q: Field entry: COC(=O)c1ccc(S)c(S(=O)(=O)Nc2nc(N)n[nH]2)c1
A: N

Q: Field entry: CCNC(=O)Cc1nc2c(O)ncnc2n1C1OC(CO)C(O)C1O (stereo unspecified)
A: N

Q: Field entry: CC(=O)NC1=C(NCC(C)(C)C)C(=O)c2ccccc2C1=O
A: N

Q: Field entry: CCOC(=O)/C(=C/c1cccc(OC)c1)N(CC)CC
A: N

----------
Tested on: Malme-3M
Experiment: NCI tumour cell line growth inhibition, 48 h
The source made the active and inactive calls. Rule as the data show it: active = GI50 up to about 1.1 µM and inactive = higher.
Choose the fitting class; nothing outside Yes for active, No for inactive is accepted.

Q: Could you please tell me the result logged for COC(=O)/C1=C/c2c([nH]c3ccccc23)/C(C(=O)OC)=C\c2c1[nH]c1ccccc21 [CAULERPIN] in this assay?
A: No

Q: Field entry: COC(=O)c1c(O)ccc2[nH]c3c(O)c4ccccc4cc3c12
A: No

Q: Field entry: O=C(Nc1ccc(Cl)c(C(F)(F)F)c1)C(=O)c1c(O)c2ccccc2oc1=O
A: No

Q: Field entry: O=C(NCCNCCNC(=O)c1cc(-c2ccccc2)nc2ccccc12)c1cc(-c2ccccc2)nc2ccccc12
A: No

Q: Field entry: COc1nc2ncc([C@@H](O)[C@H](O)CO)nc2c(=O)[nH]1
A: No

Q: Field entry: CC1C=CC(=O)C(n2cc(F)c(=O)[nH]c2=O)O1 (stereo not given)
A: No

Q: Field entry: Fc1ccccc1C1SCc2nc3cc4ccccc4cc3n21 (stereo not given)
A: No

Q: Field entry: O=C(CCCN1CCC2(CC1)/C(=N/C1CCCCC1)NC(=O)N2c1ccccc1)c1ccc(F)cc1
A: No

Q: Field entry: COC(=O)C1=C(C(=O)OC)C(Cc2ccccc2)(OO)OC1=O (stereo not given)
A: No

Q: Field entry: COc1cccc2c1C(=O)c1c(O)c3c(c(O)c1C2=O)C[C@@](O)(C(=O)CO)C[C@@H]3OC1CC(N)CC(C)O1 (stereo not given in full)
A: Yes

Q: Field entry: Cc1ccccc1N/C(N)=N/C#N
A: No

Q: Field entry: CCCCN=C(OC1C=CCCC1)SC (stereo not given)
A: No

Q: Field entry: Nc1nc2c(ncn2C2OC(CO)C(O)C2O)c(=O)o1 (stereo not given)
A: No

Q: Field entry: COC(=O)C12CCC(C(F)(F)C1=O)C2(C)C (stereo not given)
A: No

Q: Field entry: CCC(=O)NC(Nc1cc(C)on1)(C(F)(F)F)C(F)(F)F
A: No

Q: Field entry: COc1ccccc1C1C(C(=O)O)=C(CO)Oc2cc3c(cc21)OCO3 (stereo not given)
A: No

Q: Field entry: CS(=O)(=O)c1ccc(/N=C/C=C/Nc2ccc(S(C)(=O)=O)cc2)cc1
A: No

Q: Field entry: N=C(N)NS(=O)(=O)c1ccc(Nc2c3ccccc3nc3c(C(=O)NCCO)cccc23)cc1
A: Yes

Q: Field entry: O=C(Cc1csc2[n+]1C(=O)/C(=C/c1ccc(Cl)cc1)S2)Nc1ccccc1
A: No

Q: Field entry: COc1ccc2c(c1)C(=O)C1(C2)[C@H](c2ccccc2)C2C(=O)c3cc(OC)ccc3C2[C@H]1c1ccccc1 (stereo not given in full)
A: No

Entry source: ChEMBL document CHEMBL1201862
